Where these numbers come from: PubChem BioAssay AID623952

TESTED SYSTEM: G protein-activated inward rectifier potassium channel 2 (Homo sapiens) + G protein-activated inward rectifier potassium channel 1 (Homo sapiens) (UniProt P48051+P48549)
Sequence (P48051 whole entry, looked up): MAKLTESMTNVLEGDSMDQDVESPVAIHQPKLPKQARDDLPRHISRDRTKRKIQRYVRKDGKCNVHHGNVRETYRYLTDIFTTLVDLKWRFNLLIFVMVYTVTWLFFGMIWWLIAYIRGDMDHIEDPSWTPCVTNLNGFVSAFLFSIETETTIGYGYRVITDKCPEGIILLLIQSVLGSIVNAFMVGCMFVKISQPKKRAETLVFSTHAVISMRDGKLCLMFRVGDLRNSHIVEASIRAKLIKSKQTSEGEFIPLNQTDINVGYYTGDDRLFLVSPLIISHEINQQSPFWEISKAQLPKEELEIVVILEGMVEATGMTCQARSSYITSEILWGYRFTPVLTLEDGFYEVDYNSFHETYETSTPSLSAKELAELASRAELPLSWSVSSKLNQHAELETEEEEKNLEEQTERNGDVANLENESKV
Sequence (P48549 whole entry, looked up): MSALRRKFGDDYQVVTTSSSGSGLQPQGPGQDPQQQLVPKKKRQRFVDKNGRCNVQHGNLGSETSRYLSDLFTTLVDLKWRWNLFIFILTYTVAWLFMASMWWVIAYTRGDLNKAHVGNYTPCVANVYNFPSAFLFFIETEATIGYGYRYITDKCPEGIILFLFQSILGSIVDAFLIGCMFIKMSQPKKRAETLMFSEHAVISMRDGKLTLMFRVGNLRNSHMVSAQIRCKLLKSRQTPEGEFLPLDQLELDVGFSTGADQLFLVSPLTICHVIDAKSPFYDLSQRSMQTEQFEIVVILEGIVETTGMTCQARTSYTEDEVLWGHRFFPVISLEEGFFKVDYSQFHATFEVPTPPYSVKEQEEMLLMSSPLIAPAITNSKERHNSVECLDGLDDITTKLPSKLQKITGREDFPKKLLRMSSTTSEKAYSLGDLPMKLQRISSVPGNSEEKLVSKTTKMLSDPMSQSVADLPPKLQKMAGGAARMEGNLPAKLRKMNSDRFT
TEST: GIRK1/2 activators in cells lacking mGlu8, dose response, minus mGlu8, HEK-293 hGIRK1/2, thallium flux (AID 623952)
REPORTED CONDITIONS: HEK-293 hGIRK1/2, thallium flux FluoZin-2 fluorescence
pEC50: −log10 of the molar value.
MEASUREMENT LABEL: pEC50

- COMPOUND: "Cc1ccc(-c2nnn(CC(=O)NC3CC4CCC3C4)n2)cc1 (centres undefined)"
  MEASURED VALUE: 6.15
- COMPOUND: "Cc1ccc(NC(=O)Cc2ccccc2Cl)cc1S(=O)(=O)N(C)C"
  MEASURED VALUE: 6.10
- COMPOUND: "Cc1cc(NC(=O)Nc2ccccc2)n(-c2ccccc2)n1"
  MEASURED VALUE: 5.77
- COMPOUND: "CCOc1ccccc1Nc1nnc(Cc2ccccc2Cl)c(=O)[nH]1"
  MEASURED VALUE: 6.60
